# assay_text: nuclear p53 accumulation, HPV+ cells – imaging, p53-positive nuclei imaging, 24 h, 48 h (AID 1508601)
# condition_description: 24/48 h, measured here: cell number at 48 h, Library stock concentration: 3.33 mM
About 85 (1%) of roughly 5,700 compounds were called active. What follows is part of a selection rich in actives, with near analogues and random picks from the rest. Peptide text beside a SMILES is read from it. * marks the point of attachment. Cbz = O=C(OCc1ccccc1)*
Parameter: nuclei count, normalised. Scope: all listed entries.

>  <compound>
CC(C)CC(NC(=O)C(CCc1ccccc1)NC(=O)CN1CCOCC1)C(=O)NC(Cc1ccccc1)C(=O)NC(CC(C)C)C(=O)[C@@]1(C)CO1 (some centres undefined)

>  <nuclei count, normalised (%)>
30.5

$$$$
>  <compound>
CC(C)CC(C=O)NC(=O)C(CC(C)C)NC(=O)C(CC(C)C)NC(=O)OCc1ccccc1 (stereo not drawn) (Cbz-Leu-Leu-Leu-aldehyde; configuration not given here)

>  <nuclei count, normalised (%)>
38.7

$$$$
>  <compound>
CC(C)(CO)c1cc2cc(NC(=O)C3(c4ccc5c(c4)OC(F)(F)O5)CC3)c(F)cc2n1CC(O)CO (centres undefined)

>  <nuclei count, normalised (%)>
120

$$$$
>  <compound>
CC(NC(=O)C(Cc1ccccc1)NC(=O)OCc1ccccc1)C(=O)CF (centres undefined)

>  <nuclei count, normalised (%)>
101

$$$$

----------
Parameter: p53-positive nuclei, normalised. Scope: all listed entries.
# system_tested: Cellular tumor antigen p53 (Homo sapiens) (UniProt P04637)
# Sequence (P04637 whole entry, looked up): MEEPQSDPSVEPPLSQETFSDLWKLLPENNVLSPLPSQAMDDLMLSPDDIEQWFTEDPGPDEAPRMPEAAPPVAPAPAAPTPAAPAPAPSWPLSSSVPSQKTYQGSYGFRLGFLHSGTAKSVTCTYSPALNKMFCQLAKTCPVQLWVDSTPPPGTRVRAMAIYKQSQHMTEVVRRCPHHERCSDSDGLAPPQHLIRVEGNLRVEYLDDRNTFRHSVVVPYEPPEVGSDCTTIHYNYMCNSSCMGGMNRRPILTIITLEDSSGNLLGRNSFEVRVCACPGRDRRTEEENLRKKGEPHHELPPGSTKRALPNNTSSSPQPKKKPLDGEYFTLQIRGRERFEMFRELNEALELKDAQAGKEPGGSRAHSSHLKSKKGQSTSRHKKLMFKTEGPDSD
# assay_text: nuclear p53 accumulation, HPV+ cells – imaging, p53-positive nuclei imaging, 24 h, 48 h (AID 1508601)
# condition_description: 24/48 h, measured here: p53 positive nuclei at 24 h, Library stock concentration: 13.7 uM, stronger effect = higher value
About 85 (1%) of roughly 5,700 compounds were called active. The entries come from a sample that favours actives as a whole.

>  <compound>
CN(NC(=O)CC(=O)NN(C)C(=S)c1ccccc1)C(=S)c1ccccc1

>  <scale_unit>
%

>  <p53-positive nuclei, normalised>
1.05

$$$$
>  <compound>
COc1ccc(N2C(=O)C(=Cc3ccc([N+](=O)[O-])s3)SC2=S)cc1

>  <scale_unit>
%

>  <p53-positive nuclei, normalised>
0.00591

$$$$
>  <compound>
C=C1C(=O)OC(CCCCCCCC)C1C(=O)O (stereo not given)

>  <scale_unit>
%

>  <p53-positive nuclei, normalised>
-0.0585

$$$$
>  <compound>
CCOC(=O)c1sc(NC(=O)c2ccco2)c(SC#N)c1C

>  <scale_unit>
%

>  <p53-positive nuclei, normalised>
-0.111

$$$$
>  <compound>
CC(=O)NC(CSC(=S)NSc1ccc(SNC(=S)SCC(NC(C)=O)C(=O)O)cc1)C(=O)O (stereo not given)

>  <scale_unit>
%

>  <p53-positive nuclei, normalised>
-0.173

$$$$
>  <compound>
Nc1ccn(C2OC(CO)C(O)C2F)c(=O)n1 (stereo not given)

>  <scale_unit>
%

>  <p53-positive nuclei, normalised>
-0.0822

$$$$
>  <compound>
OCC1OC(n2cnc3c2NC=NCC3O)CC1O (stereo not given)

>  <scale_unit>
%

>  <p53-positive nuclei, normalised>
0.0187

$$$$
>  <compound>
COC(=O)C#Cc1ccc([N+](=O)[O-])cc1

>  <scale_unit>
%

>  <p53-positive nuclei, normalised>
0.099

$$$$
>  <compound>
NC(=O)c1ncn(C2OC(CO)C(O)C2O)c1O (stereo not given)

>  <scale_unit>
%

>  <p53-positive nuclei, normalised>
-0.19

$$$$
>  <compound>
Nc1ccn(C2C=C(CO)C(O)C2O)c(=O)n1 (stereo not given)

>  <scale_unit>
%

>  <p53-positive nuclei, normalised>
0.115

$$$$

----------
# system_tested: Cellular tumor antigen p53 (Homo sapiens)
# assay_text: nuclear p53 accumulation, HPV+ cells – imaging, p53-positive nuclei imaging, 24 h, 48 h (AID 1508601)
# condition_description: 24/48 h, measured here: p53 positive nuclei at 24 h, Library stock concentration: 3.33 mM, stronger effect = higher value
Screen size: about 5,700 compounds; about 85 (1%) were called active. The list comes from a sample in which actives are over-represented; it also holds close analogues and randomly drawn compounds. Peptide text beside a SMILES is read from it.

>  <compound>
COC(=O)C(Cc1ccccc1)NC(=O)C(N)CC(=O)O (stereo not drawn) (H-Asp-Phe-OMe; configuration not given here)

>  <p53-positive nuclei, normalised / %>
-0.12

$$$$
>  <compound>
COc1cc(OC)c2c(=O)[nH]c(-c3cc(C)c(OCCO)c(C)c3)nc2c1

>  <p53-positive nuclei, normalised / %>
0.0179

$$$$
>  <compound>
CC(C)CC(CC(=O)NO)C(=O)NC(Cc1ccc2ccccc2c1)C(=O)NC(C)C(=O)NCCN (centres undefined)

>  <p53-positive nuclei, normalised / %>
-0.208

$$$$
>  <compound>
CCc1cnn2c(NCc3ccc[n+]([O-])c3)cc(N3CCCCC3CCO)nc12 (centres undefined)

>  <p53-positive nuclei, normalised / %>
8.9

$$$$
>  <compound>
CC(C)C(C(=O)Nc1ccc(C(=O)NO)cc1)c1ccccc1 (centres undefined)

>  <p53-positive nuclei, normalised / %>
50.4

$$$$
>  <compound>
COc1ccc(CNc2nc(N3CCCC3CO)ncc2C(=O)NCc2ncccn2)cc1Cl (centres undefined)

>  <p53-positive nuclei, normalised / %>
-0.198

$$$$
>  <compound>
C[C@]1(C(=O)Nc2ccc(F)nc2)CCCN1c1nc(Nc2cc(C3CC3)[nH]n2)c2cccn2n1

>  <p53-positive nuclei, normalised / %>
-0.0691

$$$$
>  <compound>
O=C1C(c2c(O)[nH]c3ccccc23)=Nc2ccccc21

>  <p53-positive nuclei, normalised / %>
-0.221

$$$$
>  <compound>
CC1CCO[C@H]2Cn3cc(C(=O)NCc4ccc(F)cc4F)c(=O)c(O)c3C(=O)N12 (some centres undefined)

>  <p53-positive nuclei, normalised / %>
-0.188

$$$$

----------
# assay_text: nuclear p53 accumulation, HPV+ cells – imaging, p53-positive nuclei imaging, 24 h, 48 h (AID 1508601)
# condition_description: 24/48 h, measured here: cell number at 48 h, Library stock concentration: 10 mM
Screen size: about 5,700 compounds; about 85 (1%) were called active. Many of the other results were omitted from the sample, so actives are more common in it than they were.
Parameter: nuclei count, normalised. Scope: all listed entries.

>  <compound>
COc1cc(C(=O)NS(=O)(=O)c2ccccc2C)ccc1Cc1cn(C)c2ccc(NC(=O)OC3CCCC3)cc12

>  <nuclei count, normalised / %>
105

$$$$
>  <compound>
Cc1c(CN2CCN(C(=O)C(C)O)CC2)sc2c(N3CCOCC3)nc(-c3cnc(N)nc3)nc12 (stereo unspecified)

>  <nuclei count, normalised / %>
88.2

$$$$
>  <compound>
Nc1ccn(C2C=C(CO)C(O)C2O)c(=O)n1 (stereo unspecified)

>  <nuclei count, normalised / %>
52

$$$$
>  <compound>
Cn1cc(CNCC2CCN(c3ncc(C(=O)NO)cn3)CC2)c2ccccc21

>  <nuclei count, normalised / %>
23.5

$$$$
>  <compound>
COC(=O)C(NC(=O)c1cc(-c2ccccc2)nc2ccccc12)c1ccccc1 (stereo unspecified)

>  <nuclei count, normalised / %>
103

$$$$
>  <compound>
CCCCN(Cc1ccc(C(=O)NO)cc1)C(=O)Nc1ccccc1

>  <nuclei count, normalised / %>
67.8

$$$$
>  <compound>
CN1CCc2c(c3ccccc3n2Cc2ccc(C(=O)NO)cc2)C1

>  <nuclei count, normalised / %>
107

$$$$
>  <compound>
O=C(O)c1ccccc1SC1=NS(=O)(=O)c2ccccc21

>  <nuclei count, normalised / %>
111

$$$$
>  <compound>
CC(C)(C)Nc1nc2cc(Cl)c(Cl)cc2nc1S(C)(=O)=O

>  <nuclei count, normalised / %>
50

$$$$
>  <compound>
COc1ccc(-c2nc(N3CCOCC3)c3sc(CN(C)c4ncc(C(=O)NO)cn4)cc3n2)cn1

>  <nuclei count, normalised / %>
19

$$$$
>  <compound>
CC(C)CC(NC(=O)C(O)C(N)Cc1ccccc1)C(=O)O (stereo unspecified)

>  <nuclei count, normalised / %>
111

$$$$
>  <compound>
CN1CC[C@H](c2c(O)cc(O)c3c(=O)cc(-c4ccccc4Cl)oc23)C(O)C1 (stereo partly specified)

>  <nuclei count, normalised / %>
20.2

$$$$
>  <compound>
Cc1ccc(B(O)O)cc1

>  <nuclei count, normalised / %>
112

$$$$
>  <compound>
Cc1cc(C)c(N(Cc2ccccc2)S(=O)(=O)c2ccc(OCCNC(=O)c3cc4ccccc4o3)cc2)c(C(=O)NO)c1

>  <nuclei count, normalised / %>
119

$$$$
>  <compound>
CS(=O)(=O)c1ccc(C(CC2CCCC2)C(=O)Nc2nccs2)cc1 (stereo unspecified)

>  <nuclei count, normalised / %>
106

$$$$
>  <compound>
CN1CCC(c2c(O)cc(O)c3c(=O)cc(-c4ccccc4Cl)oc23)C(O)C1 (stereo unspecified)

>  <nuclei count, normalised / %>
17.8

$$$$
>  <compound>
CC(C)(CO)c1cc2cc(NC(=O)C3(c4ccc5c(c4)OC(F)(F)O5)CC3)c(F)cc2n1CC(O)CO (stereo unspecified)

>  <nuclei count, normalised / %>
111

$$$$
>  <compound>
CNC(=O)c1ccc(Nc2ncc(C(F)(F)F)c(NCc3nccnc3N(C)S(C)(=O)=O)n2)cc1

>  <nuclei count, normalised / %>
33.5

$$$$
>  <compound>
OCc1c[nH]c2ccccc12

>  <nuclei count, normalised / %>
106

$$$$
>  <compound>
CC(C)CC(=O)Nc1n[nH]c2c1CN(C(=O)C1CCN(C)CC1)C2(C)C

>  <nuclei count, normalised / %>
23.2

$$$$
>  <compound>
CN1CCN(C(=S)SSC(=S)N2CCN(C)CC2)CC1

>  <nuclei count, normalised / %>
37.3

$$$$
